# System: Thermotoga maritima
# procedure details: Inhibition of Thermotoga maritima membrane bound pyrophosphatase at 100 uM using sodium pyrophosphate as substrate preincubated for 5 mins followed by substrate addition and measured after 5 mins by spectrophotometry relative to control
observable: inhibition

// solved cases for inhibition follow
CCOC(=O)c1ccc(S(=O)(=O)NC2=NC(=O)CS2)cc1 ... > 50%
O=c1[nH]c2ccc(S(=O)(=O)CCO)cc2o1 ... > 50%
Nc1ccc(S(=O)(=O)N2CCCC2C(=O)O)cc1 (centres undefined) ... > 50%

Let us examine a further case.
Report value: inhibition, system: Thermotoga maritima, compound: O=C(O)c1cc(-c2ccccc2[N+](=O)[O-])on1 > 50%

====

# procedure details: Inhibition of Plasmodium falciparum 3D7 pyrophosphatase-VP1 expressed in baculovirus infected insect cells using sodium pyrophosphate as substrate preincubated for 5 mins followed by substrate addition and measured after 10 mins by spectrophotometry
observable: pIC50
Convention used: pIC50 is expressed as -log10 of the molar concentration.

Supply measured pIC50 of Cc1cc(C)cc(-c2cc(C(=O)Oc3ccccc3Br)no2)c1 in your reply. 4.26

====

# procedure details: Inhibition of Thermotoga maritima membrane bound pyrophosphatase at 100 uM using sodium pyrophosphate as substrate preincubated for 5 mins followed by substrate addition and measured after 5 mins by spectrophotometry
# settings: read-out: IC50
Recorded IC50 values for a group of compounds are listed next.
Field format: number, assumed µM, no unit text.

// solved cases for IC50 follow
Cc1nc(-c2cc(C(=O)Oc3ccccc3Br)no2)cs1 ... 460
CC(C)(C)c1cc(C(=O)Nc2ccc([N+](=O)[O-])cc2)cc(C(C)(C)C)c1 ... 100
CC(C)(C)c1cc(-c2cc(C(=O)Oc3ccccc3Br)no2)cc(C(C)(C)C)c1 ... 10
O=C(O)c1cnc(-c2ccccc2)s1 ... 29
CC(C)(C)c1cc(C(=O)Nc2nc3ccccc3s2)cc(C(C)(C)C)c1 ... 91
CC(C)(C)c1cc(C(=O)Nc2nccs2)cc(C(C)(C)C)c1 ... 39
Nc1ccc(S(=O)(=O)N2CCCC2C(=O)O)cc1 (stereo not drawn) ... 110
O=C(O)c1cc(-c2ccccc2)n[nH]1 ... 130

Let us examine a further case.
Supply measured IC50 of O=C(O)c1cc(-c2ccccc2[N+](=O)[O-])on1 in your reply. 71

====

# System: Plasmodium falciparum
# procedure details: Antiplasmodial activity against Plasmodium falciparum 3D7 infected in human erythrocytes assessed as growth inhibition after 72 hrs by SYBR Gren-I fluorescent dye based method
# Format: functional, organism-based
# settings: 3D7, 72 h
observable: IC50 (µM)
Field format: number, assumed µM, no unit text.

Supply measured IC50 of Cc1cc(C)cc(-c2cc(C(=O)Oc3ccccc3Br)no2)c1 in your reply. 99

====

# procedure details: Inhibition of Thermotoga maritima membrane bound pyrophosphatase at 100 uM using sodium pyrophosphate as substrate preincubated for 5 mins followed by substrate addition and measured after 5 mins by spectrophotometry
# settings: read-out: IC50
Recorded IC50 values for a group of compounds are listed next.
Field format: number, assumed µM, no unit text.

// solved cases for IC50 follow
O=c1[nH]c2ccc(S(=O)(=O)CCO)cc2o1 ... 43
CCOC(=O)c1ccc(S(=O)(=O)NC2=NC(=O)CS2)cc1 ... 120
CC(C)(C)c1cc(C(=O)NCCCn2ccnc2)cc(C(C)(C)C)c1 ... 210
Cc1cc(C)cc(-c2cc(C(=O)Oc3ccccc3)no2)c1 ... 26
Cc1nc(-c2cc(C(=O)O)no2)cs1 ... 17

Supply measured IC50 of Cc1cccc(-c2cc(C(=O)Oc3ccccc3Br)no2)c1 in your reply. 6.1

Supply measured IC50 of CC(C)(C)c1cc(C(=O)Nc2ccccc2Br)cc(C(C)(C)C)c1 in your reply. 47

Supply measured IC50 of O=C(O)c1csc(-c2ccc([N+](=O)[O-])cc2)n1 in your reply. 80
